# protocol-text: Pharmacokinetics of compounds 1–11 in rat plasma (UPLC-TQ/MS) after oral administration of HYD and plus-minus Haizao/Gancao decoctions
# Type: in vivo, Wistar rats (PTU-induced model of hypothyroidism)
# test-conditions: Wistar, 11 mL/kg, group HYD-GC (HYD minus Gancao), 11 mL/kg intragastrically, model rats, n = 6, mean ± S.D.
measured-metric: half-life (h)

>>> print(df.to_string())
                            compound_smiles  measured_metric  number
0                 COc1c2ccoc2cc2oc(=O)ccc12        half-life    1.17
1  C[C@@H]1O[C@@H](O[C@H]2[C@H](Oc3cc(O)c4c(c3)O[C@H](c3ccc(O)cc3)CC4=O)O[C@H](CO)[C@@H](O)[C@@H]2O)[C@H](O)[C@H](O)[C@H]1O        half-life    1.12

[A] COc1ccc(-c2cc(=O)c3c(OC)c(OC)c(OC)c(OC)c3o2)cc1OC
[B] COc1ccc2ccc(=O)oc2c1CC=C(C)C
Hey, which is lower on measured half-life, A or B ? Your answer should be the label of the entry you select.
B
